Measured IC50 values are reported for all entries that follow.
Molecular target: Neprilysin
Assay: In vivo inhibitory potency against neutral endopeptidase by displacement of [3H]HACBOGly binding in mouse kidney
value-kind: IC50 (nM)

1. CC(c1ccc(F)c(F)c1)C(CS)C(=O)NC(Cc1ccc(O)cc1)C(=O)O (stereo not given) : 5.2
2. CC(c1ccc(F)cc1)C(CS)C(=O)NC(Cc1ccc(O)cc1)C(=O)O (stereo not given) : 5.9
3. CC(NC(=O)C(CS)C(C)c1ccc(F)cc1)C(=O)O (stereo not given) : 2
4. CC(c1ccc(O)cc1)C(CS)C(=O)NC(Cc1ccc(O)cc1)C(=O)O (stereo not given) : 9
5. CC(NC(=O)C(CS)C(C)c1ccc(F)c(F)c1)C(=O)O (stereo not given) : 3.5
6. CC(c1ccc(N)cc1)C(CS)C(=O)NC(Cc1ccc(O)cc1)C(=O)O (stereo not given) : 16
7. O=C(NC(Cc1ccc(O)cc1)C(=O)O)C(CS)Cc1ccccc1 (stereo not given) : 2
8. CC(c1ccccc1)C(CS)C(=O)NC(COCc1ccccc1)C(=O)O (stereo not given) : 4
9. CCC(NC(=O)C(CS)C(C)c1ccccc1)C(=O)O (stereo not given) : 6.3
10. CC(NC(=O)C(CS)C(C)c1ccc2c(c1)OCO2)C(=O)O (stereo not given) : 2
